study-target: Alpha 2B (Homo sapiens)
Sequence (P18089 1-450): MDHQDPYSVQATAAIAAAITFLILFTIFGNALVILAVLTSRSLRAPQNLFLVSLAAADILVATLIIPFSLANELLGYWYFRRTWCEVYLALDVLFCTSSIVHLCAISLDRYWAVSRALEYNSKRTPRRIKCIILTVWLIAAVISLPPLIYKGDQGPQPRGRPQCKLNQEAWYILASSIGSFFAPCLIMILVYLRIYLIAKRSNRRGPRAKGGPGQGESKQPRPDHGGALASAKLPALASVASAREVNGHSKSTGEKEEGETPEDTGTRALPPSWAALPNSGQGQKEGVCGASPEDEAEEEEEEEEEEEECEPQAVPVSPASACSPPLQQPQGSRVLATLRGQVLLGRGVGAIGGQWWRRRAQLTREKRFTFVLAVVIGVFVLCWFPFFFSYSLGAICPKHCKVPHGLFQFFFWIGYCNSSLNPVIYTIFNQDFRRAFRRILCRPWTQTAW
protocol-description: FLIPR assay, intracellular Ca2+ mobilization, alpha 2B
Assay type: cell-based
assay-context: FLIPR, agonist; read-out: Alpha 2B Potency (EC50)
pEC50: −log10 of the molar value.
Please use y whenever pEC50 is not below 7, and n whenever it is.

Worked examples, 2 compounds total:
compound	study-target	class-label
Cc1c(NC2=NCCC2)ccc2c1NCCO2 [Compound 36]	Alpha 2B (Homo sapiens)	n
Cc1c(NC2=NCCC2)ccc2[nH]cnc12 [Compound 12]	Alpha 2B (Homo sapiens)	n

Attention now shifts to the item below.
Query: Item Fc1cccc2c1C(NC1=NCCC1)CC2 (stereo not drawn) [Compound 35] with pEC50 of 7 or above?
Response: n
